# EXPERIMENTAL_TARGET: UniProtKB Q72874
# METHOD_NOTES: Inhibitory activity was evaluated against HIV-1 protease
ENDPOINT_LABEL: IC50 (µM)
# unit: µM | format: bare number

Give IC50 for O=C1N(Cc2ccc3ccccc3c2)C(Cc2ccccc2)P(=O)(O)C(Cc2ccccc2)N1Cc1ccc2ccccc2c1 (racemic)
0.26

Give IC50 for O=C1N(Cc2ccc(CO)cc2)C(Cc2ccccc2)P(=O)(O)C(Cc2ccccc2)N1Cc1ccc(CO)cc1 (racemic)
0.24

Give IC50 for O=C1N(Cc2ccccc2)C(Cc2ccccc2)P(=O)(O)C(Cc2ccccc2)N1Cc1ccccc1 (stereo not drawn)
21

Give IC50 for O=C1N(Cc2ccc(CBr)cc2)C(Cc2ccccc2)P(=O)(O)C(Cc2ccccc2)N1Cc1ccc(CBr)cc1 (stereo not drawn)
18

Give IC50 for O=C1N(Cc2ccc(CBr)cc2)C(Cc2ccccc2)P(=O)(O)C(Cc2ccccc2)N1Cc1ccc(CBr)cc1 (racemic)
0.7

Give IC50 for O=C1N(Cc2ccc(CO)cc2)C(Cc2ccccc2)P(=O)(O)C(Cc2ccccc2)N1Cc1ccc(CO)cc1 (stereo not drawn)
4.8
